conditions: in propylene glycol, 323.15 K
readout: solubility (mole fraction)
# respond with the number and nothing more

Task: Would you kindly share the measured solubility (mole fraction) for Nc1ncnc2c1ncn2[C@@H]1O[C@H](CO)[C@@H](O)[C@H]1O ?
Output: 0.00665

* * *

conditions: in DMSO, 293.15 K
readout: solubility (mole fraction)
Just the number, please, no unit attached.

Task: Any idea what its solubility (mole fraction) is? The compound is Nc1ncnc2c1ncn2[C@@H]1O[C@H](CO)[C@@H](O)[C@H]1O
Output: 0.00262

* * *

conditions: in DMF, 323.15 K
readout: solubility (mole fraction)

Task: If you can, please state the reported solubility (mole fraction) value of Nc1ncnc2c1ncn2[C@@H]1O[C@H](CO)[C@@H](O)[C@H]1O .
Output: 0.0127

* * *

details: in propylene glycol, 298.15 K
readout: solubility (mole fraction)

Task: Would you kindly share the measured solubility (mole fraction) for Nc1ncnc2c1ncn2[C@@H]1O[C@H](CO)[C@@H](O)[C@H]1O ?
Output: 0.00464

* * *

conditions: in propylene glycol, 283.15 K
readout: solubility (mole fraction)

Task: Entry Nc1ncnc2c1ncn2[C@@H]1O[C@H](CO)[C@@H](O)[C@H]1O : reported solubility (mole fraction) = ?
Output: 0.00375

* * *

conditions: in water, 288.15 K
readout: solubility (mole fraction)
Give the value as a plain number.

Task: Using the record for Nc1ncnc2c1ncn2[C@@H]1O[C@H](CO)[C@@H](O)[C@H]1O , report its solubility (mole fraction).
Output: 0.00029

* * *

conditions: in DMF, 303.15 K
readout: solubility (mole fraction)
Output spec: single numeric token, no unit.

Task: Form field: reported solubility (mole fraction) of Nc1ncnc2c1ncn2[C@@H]1O[C@H](CO)[C@@H](O)[C@H]1O
Output: 0.00906

* * *

details: in DMSO, 298.15 K
readout: solubility (mole fraction)
Please reply with the value in numeric form only.

Task: So what's the measured solubility (mole fraction) for this one? Nc1ncnc2c1ncn2[C@@H]1O[C@H](CO)[C@@H](O)[C@H]1O
Output: 0.00299

* * *

details: in propylene glycol, 293.15 K
readout: solubility (mole fraction)

Task: Entry Nc1ncnc2c1ncn2[C@@H]1O[C@H](CO)[C@@H](O)[C@H]1O : reported solubility (mole fraction) = ?
Output: 0.00431

* * *

settings: in DMSO, 308.15 K
readout: solubility (mole fraction)
Give the figure by itself; no unit, no explanation.

Task: Please report the recorded solubility (mole fraction) for Nc1ncnc2c1ncn2[C@@H]1O[C@H](CO)[C@@H](O)[C@H]1O .
Output: 0.00394

* * *

settings: in DMF, 278.15 K
readout: solubility (mole fraction)
In your answer, state the number alone without any accompanying words.

Task: Could you share which solubility (mole fraction) value was measured for Nc1ncnc2c1ncn2[C@@H]1O[C@H](CO)[C@@H](O)[C@H]1O ?
Output: 0.00414

* * *

settings: in DMF, 298.15 K
readout: solubility (mole fraction)
Lab note: jot the number down without any unit.

Task: Returns the measured solubility (mole fraction) for the input compound. Input: Nc1ncnc2c1ncn2[C@@H]1O[C@H](CO)[C@@H](O)[C@H]1O
Output: 0.00784

* * *

conditions: in DMSO, 303.15 K
readout: solubility (mole fraction)
Reply with just the number.

Task: What value of solubility (mole fraction) has been recorded for this entry: Nc1ncnc2c1ncn2[C@@H]1O[C@H](CO)[C@@H](O)[C@H]1O
Output: 0.00348

Hey, just so you know, these numbers are from BigSolDB 2.1.
